Experimental target: UniProt:P51531
Sequence (P51531 whole entry): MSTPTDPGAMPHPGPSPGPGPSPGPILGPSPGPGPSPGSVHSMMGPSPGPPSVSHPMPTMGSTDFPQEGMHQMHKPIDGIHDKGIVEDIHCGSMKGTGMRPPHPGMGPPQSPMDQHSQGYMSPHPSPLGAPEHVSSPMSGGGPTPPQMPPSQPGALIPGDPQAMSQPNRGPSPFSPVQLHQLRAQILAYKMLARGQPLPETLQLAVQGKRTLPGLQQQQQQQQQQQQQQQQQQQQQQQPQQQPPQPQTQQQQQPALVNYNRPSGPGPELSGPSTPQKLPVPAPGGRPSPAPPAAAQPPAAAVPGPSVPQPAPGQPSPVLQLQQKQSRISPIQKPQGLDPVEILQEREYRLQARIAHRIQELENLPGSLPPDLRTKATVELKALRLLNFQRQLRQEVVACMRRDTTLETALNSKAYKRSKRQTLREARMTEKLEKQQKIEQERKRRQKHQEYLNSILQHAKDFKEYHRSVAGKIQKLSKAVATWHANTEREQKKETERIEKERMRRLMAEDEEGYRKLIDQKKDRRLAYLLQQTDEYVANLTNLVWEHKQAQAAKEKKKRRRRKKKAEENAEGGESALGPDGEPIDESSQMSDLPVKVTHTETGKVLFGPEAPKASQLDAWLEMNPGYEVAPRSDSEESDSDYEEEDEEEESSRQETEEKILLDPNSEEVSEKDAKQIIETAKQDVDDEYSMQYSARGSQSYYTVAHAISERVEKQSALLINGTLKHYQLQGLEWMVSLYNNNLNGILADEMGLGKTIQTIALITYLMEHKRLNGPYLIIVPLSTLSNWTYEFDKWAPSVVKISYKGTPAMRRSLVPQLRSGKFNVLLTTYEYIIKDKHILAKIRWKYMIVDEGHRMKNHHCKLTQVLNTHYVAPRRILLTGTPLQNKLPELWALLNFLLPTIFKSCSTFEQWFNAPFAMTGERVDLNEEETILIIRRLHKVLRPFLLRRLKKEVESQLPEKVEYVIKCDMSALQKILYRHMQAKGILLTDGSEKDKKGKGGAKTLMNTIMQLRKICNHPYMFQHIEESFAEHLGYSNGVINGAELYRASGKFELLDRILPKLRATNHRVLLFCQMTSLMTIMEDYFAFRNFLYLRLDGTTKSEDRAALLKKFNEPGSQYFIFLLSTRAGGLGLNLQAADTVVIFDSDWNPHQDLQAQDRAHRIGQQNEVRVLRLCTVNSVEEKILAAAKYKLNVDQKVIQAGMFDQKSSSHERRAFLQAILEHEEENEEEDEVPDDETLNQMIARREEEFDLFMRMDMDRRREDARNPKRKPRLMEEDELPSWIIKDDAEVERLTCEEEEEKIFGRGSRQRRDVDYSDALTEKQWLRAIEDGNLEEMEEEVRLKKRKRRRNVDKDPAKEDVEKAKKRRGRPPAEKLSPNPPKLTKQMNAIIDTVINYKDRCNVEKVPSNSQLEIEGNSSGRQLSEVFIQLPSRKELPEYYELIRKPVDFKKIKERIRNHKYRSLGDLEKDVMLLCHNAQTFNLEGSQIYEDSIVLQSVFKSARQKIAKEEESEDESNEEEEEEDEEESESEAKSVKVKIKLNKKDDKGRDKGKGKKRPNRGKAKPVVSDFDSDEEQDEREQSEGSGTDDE
Experiment: ATPase catalytic activity assay of BRM (ADP-Glo)
Format: biochemical
Reported metric: BRM Max % Inhibition

Below are worked cases with known answers.
- Compound: "CC(=O)N(C)c1cc(-c2cccc(-c3csc(NC(=O)CNC(=O)c4cccc(S(=O)(=O)C(C)C)c4)n3)c2)ccn1"
  Experimental target: "UniProt:P51531"
  Reported metric: "BRM Max % Inhibition"
  Value observed: ">90%"
- Compound: "C[C@@]1(C#N)COCc2ccc(C(=O)NCC(=O)Nc3nc(-c4cc(F)c5c(c4)OCO5)cs3)cc21"
  Experimental target: "UniProt:P51531"
  Reported metric: "BRM Max % Inhibition"
  Value observed: ">95%"
- Compound: "C[C@@H]1CN(c2cccc(-c3csc(NC(=O)CNC(=O)c4ccc5c(c4)C(C#N)(CO)COC5)n3)c2)C[C@H](C)O1 (stereo partly shown)"
  Experimental target: "UniProt:P51531"
  Reported metric: "BRM Max % Inhibition"
  Value observed: ">95%"

Prompt: Give BRM Max % Inhibition for CC(C)(CN)c1cccc(C(=O)NCC(=O)Nc2nc(-c3cccc(-c4cc(CO)cc(C(F)(F)F)c4)c3)cs2)c1
Completion: >90%

Prompt: Give BRM Max % Inhibition for O=C(CNC(=O)c1ccc2c(c1)C1(CCNC1=O)CC2)Nc1nc(-c2cccc(-c3ccncc3)c2)cs1 (stereo not shown)
Completion: >95%

Prompt: Give BRM Max % Inhibition for C[C@@H]1CN(c2cccc(-c3csc(NC(=O)CNC(=O)c4cccc(C5(CO)COC5)c4)n3)c2)C[C@H](C)O1
Completion: >90%

Prompt: Give BRM Max % Inhibition for COC(=O)N1CCC[C@@H](c2csc(NC(=O)CNC(=O)c3ccc4c(c3)[C@](C)(C#N)COC4)n2)C1
Completion: >95%
